- System: human tumor cell line panels
- ASSAY_DETAILS: NCI human tumor cell panel, whole-panel summary (mean graph) and lines without a row head
- APPLIED_CONDITIONS: Homo sapiens, read-out: Log10 GI50, Delta, Delta, whole panel (converted)
// GI50 lookup, one value per entry
REPORTED_ENDPOINT: GI50 (µM)

                              smiles_record  measured
0         O=Cc1ccc(-c2ccc(-c3cccs3)[se]2)s1      6.76
1   O=Cc1ccc(-c2ccc(-c3ccc[se]3)[se]2)[se]1      3.72
2    O=Cc1ccc(-c2ccc(-c3ccc(C=O)s3)[se]2)s1      17.8
3  O=Cc1ccc(-c2ccc(-c3ccc(C=O)[se]3)[se]2)[se]1      21.4
